B1: library; numbered along this chain (parent)
chain: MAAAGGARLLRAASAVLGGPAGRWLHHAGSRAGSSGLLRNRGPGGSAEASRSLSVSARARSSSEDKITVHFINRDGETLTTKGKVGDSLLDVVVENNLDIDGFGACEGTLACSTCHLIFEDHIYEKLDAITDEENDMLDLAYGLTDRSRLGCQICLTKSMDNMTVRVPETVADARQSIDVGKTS

Variants of: B1
Assay: scaled log2 fold change in cell abundance, elesclomol vs control (0 = silent mean, 1 = nonsense mean) (scaled log2 ratio); higher = higher viability under elesclomol (loss of FDX1 cuproptosis function);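 also: variant abundance is its share of total variant reads in each endpoint sample, from next-generation sequencing of the integrated ORF PCR-amplified out of genomic DNA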
Settings: with ABC1 FDX1 KO; elesclomol 5 nM; glucose 10 mM; 14 days
experimental-readout: scaled log2 fold change

>>> value_measured("E120R")
0.278
>>> value_measured("A2T")
0.0597
>>> value_measured("M160A")
0.233
>>> value_measured("A12N")
-0.0628
>>> value_measured("H122V")
0.297
>>> value_measured("A13I")
-0.0121
>>> value_measured("E77L")
0.262
>>> value_measured("S56R")
0.43
>>> value_measured("A15V")
0.02
>>> value_measured("A21L")
0.235
>>> value_measured("L38A")
-0.113
>>> value_measured("N97K")
0.149
>>> value_measured("G42F")
-0.0705
>>> value_measured("L144E")
0.116
>>> value_measured("C112Y")
1.09
>>> value_measured("S46R")
0.93
>>> value_measured("S56H")
0.238
>>> value_measured("G6M")
-0.159
>>> value_measured("E64T")
0.135
>>> value_measured("H70K")
-0.215
>>> value_measured("I123D")
0.248
>>> value_measured("D179G")
0.226
>>> value_measured("T78N")
-0.0446
>>> value_measured("G102V")
0.298
>>> value_measured("A13D")
0.543
>>> value_measured("E77Q")
-0.0695
>>> value_measured("S46K")
0.678
>>> value_measured("G42N")
0.133
>>> value_measured("H26P")
-0.00391
>>> value_measured("L79W")
-0.0916
>>> value_measured("R8M")
-0.909
>>> value_measured("C155V")
-0.17
>>> value_measured("L79Y")
-0.343
>>> value_measured("D101L")
-0.471
>>> value_measured("S30R")
0.119
>>> value_measured("A59N")
-0.132
>>> value_measured("E134N")
1.16
>>> value_measured("L90T")
-0.871
>>> value_measured("M137N")
0.119
>>> value_measured("A59Y")
0.0878
>>> value_measured("D99L")
-0.286
>>> value_measured("E48Q")
0.747
>>> value_measured("K158E")
-0.265
>>> value_measured("I123L")
-0.128
>>> value_measured("F119I")
0.0519
>>> value_measured("C152I")
1.12

Value source: the supplement of paper PMC12855868
